# Tested on: MDA-MB-435 melanoma
# assay: NCI-60 one-dose screen, 48 h (100 = growth as untreated, 0 = no growth, -100 = all killed)
# reported conditions: 10 µM unless noted
About 83,000 compounds went through this panel and 20% of them were active in at least one assay; those are over-represented in the sample as a whole.
observation type: growth (%)

>>> readout_value("CCOC(=O)c1c(C)nc2c(c1N)/C(=C/c1ccccn1)C(=O)N2Cc1ccccc1")
11.2
>>> readout_value("COc1ccc(C2=NN(c3ccc(S(N)(=O)=O)cc3)C(c3ccc(Cl)cc3)C2)c(O)c1 (stereo not drawn)")
47.2
>>> readout_value("Cn1cc(-c2ccc3c(c2)ncn3-c2ccc(CC(=O)Nc3cc(C(C)(C)C)on3)cc2)cn1")
34.8
>>> readout_value("C=C(C)[C@@H]1CC[C@]2(C(=O)N3CCN(C)CC3)CC[C@]3(C)[C@H](CC[C@@H]4[C@@]5(C)C/C(=C/c6ccco6)C(=O)C(C)(C)[C@@H]5CC[C@]43C)[C@@H]12")
72.8
>>> readout_value("Cc1c(Cl)cccc1NC(=O)c1sc2nc3c(cc2c1N)COCC3")
-20
>>> readout_value("O=C(Nc1ccccc1)NS(=O)(=O)c1c[nH]c(=S)[nH]c1=O")
108
>>> readout_value("CNS(=O)(=O)c1cccc(-c2ccc3c4c(n(C)c(=O)c3c2)-c2ccccc2C4=O)c1")
74.5
>>> readout_value("CCN(CC)CC#CCOC(=O)[C@]1(C)CCC[C@]2(C)[C@H]3C[C@H]4C(C(C)C)=C[C@]3(CC[C@H]21)[C@@H]1C(=O)CCC(=O)[C@@H]14")
74

---

# System: SNB-75 CNS
# assay: NCI-60 one-dose screen, 48 h (100 = growth as untreated, 0 = no growth, -100 = all killed)
# reported conditions: 10 µM unless noted
This is part of a sample that, as a whole, favours compounds with a hit. Of some 83,000 tested, about 20% had one in any assay.
Listed here: items and their measured growth.
observation type: growth (%)

>>> readout_value("C#C[C@@]1(O)[C@@H](CO)O[C@@H](n2ccc3c(N)ncnc32)[C@@H]1O")
-25.6
>>> readout_value("CC(=O)OC[C@]12CC[C@@H](c3cn(Cc4ccc(Cn5cc([C@@H]6CC[C@]7(COC(C)=O)CC[C@]8(C)[C@H](CC[C@@H]9[C@@]%10(C)CC[C@H](OC(C)=O)C(C)(C)[C@@H]%10CC[C@]98C)[C@@H]67)nn5)cc4)nn3)[C@@H]1[C@H]1CC[C@@H]3[C@@]4(C)CC[C@H](OC(C)=O)C(C)(C)[C@@H]4CC[C@@]3(C)[C@]1(C)CC2")
105
>>> readout_value("Nc1cccc(C(=O)Nc2ccc3c(O)c(N=Nc4ccc(N=Nc5ccc(S(=O)(=O)O)cc5)cc4)c(S(=O)(=O)O)cc3c2)c1")
87.9
>>> readout_value("Nc1c(C(=O)Nc2ccccn2)sc2nc3c(cc12)CCCCC3")
12.3
>>> readout_value("O=C1CCc2ccccc2N1")
78.1
>>> readout_value("OCCNc1nc(NCCO)nc(Nc2ccc(C3=NN(c4ccc(Cl)cc4)C(c4ccc(Cl)cc4)C3)cc2)n1 (stereo not given)")
51.1
>>> readout_value("Cc1c(Cl)cccc1NC(=O)c1sc2nc3c(cc2c1N)COCC3")
19.4
>>> readout_value("O=C1c2ccccc2C(=O)c2c1oc1c2c(=O)[nH]c2ccc(Cl)cc21")
-9.01
>>> readout_value("C#CCN1C(=O)c2ccccc2N(CC#C)C12CCN(Cc1cn(CC(=O)Nc3ccccc3C(N)=O)nn1)CC2")
78.3
>>> readout_value("NS(=O)(=O)c1ccc(N2Cc3cc(Cl)ccc3OC3=C2C(=O)N(CC2CCCCC2)C3=O)cc1")
-98.4
>>> readout_value("NC(=O)c1ccc(C2C3=C(CCCC3=O)OC3=C2C(=O)c2ccccc2C3=O)cc1 (stereo not given)")
-1.57
>>> readout_value("COc1ccccc1-c1ccc2nc(NC(=O)Nc3cc(C(F)(F)F)cc(C(F)(F)F)c3)sc2c1")
8.11
>>> readout_value("C/C(=N/Nc1nc2ccccc2n1C)c1ccccn1")
28
>>> readout_value("O=CN1N=C(c2ccc(Cl)cc2)CC1c1cccc(Nc2ccnc3cc(C(F)(F)F)ccc23)c1 (stereo not given)")
74.9
>>> readout_value("C#C[C@@]1(O)[C@@H](CO)O[C@@H](n2cc(Cl)c3c(N)ncnc32)[C@@H]1O")
-42.4
>>> readout_value("COc1cc(/C=C/C(=O)c2ccc(NC(=O)CSc3nnc(-c4cc(OC)c(OC)c(OC)c4)n3-c3ccccc3)cc2)cc(OC)c1OC")
45.4
>>> readout_value("CN1CCN(/C=C2\\CC(C(=O)NCc3ccc(Cl)cc3Cl)NC2=O)CC1 (stereo not given)")
106
>>> readout_value("NCCN1CCNCC1")
92.2
>>> readout_value("COc1ccc(C2=NN(c3ccc(S(N)(=O)=O)cc3)C(c3ccc(Cl)cc3)C2)c(O)c1 (stereo not given)")
70.1
>>> readout_value("COC(=O)c1ccc(NC(=O)CSc2nc(-c3ccc(F)cc3)nc3ccccc23)cc1")
79.4
>>> readout_value("O=C(Nc1nc(-c2ccccc2)cs1)c1cc(-c2ccc(Br)cc2)nc2ccccc12")
85.1
>>> readout_value("COc1cc(-c2csc(NC(=O)Nc3ccc(Cl)cc3)n2)cc(OC)c1OC")
36.5
>>> readout_value("C=C(C)[C@@H]1CC[C@]2(C(=O)OCCOCCOCC[P+](c3ccccc3)(c3ccccc3)c3ccccc3)CC[C@]3(C)[C@H](CC[C@@H]4[C@@]5(C)CC[C@H](OC(C)=O)C(C)(C)[C@@H]5CC[C@]43C)[C@@H]12")
-87.2
>>> readout_value("COc1ccc(-c2[nH]c3ccc(OC)cc3c2C=C(C#N)C#N)cc1")
21.3
>>> readout_value("CCOC(=O)c1sc(/N=C2\\NC(=O)/C(=C/c3ccc(N4CCN(C)CC4)cc3)S2)nc1C")
101
>>> readout_value("COCCOCCOCc1n(Cc2ccc3ccccc3c2)c2ccccc2[n+]1Cc1ccc2ccccc2c1")
-4.1
>>> readout_value("COc1ccc(-c2cs/c(=N\\N=C\\c3ccc(O)cc3O)n2/N=C/c2ccc(O)cc2O)cc1")
29.7
>>> readout_value("COc1cc(C(=O)N2CCN(c3ccccc3OC)CC2)c(NC(=O)c2cnccn2)cc1OCc1ccccc1")
102
>>> readout_value("CCCn1c2cc(OCc3cn(-c4ccc(Cl)cc4)nn3)ccc2c2ccnc(C)c21")
92.5
>>> readout_value("C=C1C(=O)O[C@H]2[C@H]1CC/C(COC(=O)Nc1nc3ccccc3[nH]1)=C\\CC[C@@]1(C)O[C@@H]21")
75.7
>>> readout_value("O=C(/C(=C/c1ccc([N+](=O)[O-])cc1)SCc1ccc(Cl)cc1)c1ccc(F)cc1")
82.3
>>> readout_value("O=C(CCl)N1CCCc2ccccc21")
72.6
>>> readout_value("CN1C(=O)c2cc(Cl)nc3c(NC(=O)c4cccc(Cl)c4)c(Cl)c(NC(=O)c4cccc(Cl)c4)c1c23")
75.3
>>> readout_value("CN(C)c1ccc(-c2ccc3[nH]c(=O)nc(-c4ccc(F)cc4)c3c2)cn1")
11.2
>>> readout_value("N#C/C(=C/c1ccc(O)c([N+](=O)[O-])c1)c1nc(-c2ccc([N+](=O)[O-])cc2)cs1")
80.5

---

# Test system: OVCAR-8 ovarian
# assay: NCI-60 one-dose screen, 48 h (100 = growth as untreated, 0 = no growth, -100 = all killed)
# reported conditions: 10 µM unless noted
# Procedure: Growth inhibition of the OVCAR-8 human tumor cell line is measured as a screen for anti-cancer activity. Cells are grown in 96 well plates and exposed to the test compound for 48 hours. Compounds are tested at a single concentration, which is 10^-5 M for most compounds. The reported endpoint is percent growth (GI% or GIPRCNT), where numbers from 0 - 100% represent growth inhibition, and numbers from -100% - 0 represent cell death. For example, a value of 40 represents 60% growth inhibition. […]
About 83,000 compounds went through this panel and 20% of them were active in at least one assay; those are over-represented in the sample as a whole.
observation type: growth (%)

>>> readout_value("NS(=O)(=O)c1ccc(-n2nc(-c3ccccc3)ccc2=O)cc1")
101
>>> readout_value("CC(=O)c1cnc(-c2ccccc2)nc1CBr")
89.3
>>> readout_value("COc1ccc(C(=O)c2cc(F)c(F)c(OC)c2F)cc1OC(=O)CCl")
51.1
>>> readout_value("COC1=CC=CC2(OC)C3(O)CCCc4cccc(c43)N3C(=O)COC132 (stereo not given)")
99.2
>>> readout_value("O=C(O)COc1ccc2c(=O)c3sc4c(=O)c5ccccc5c(=O)c4c3c(=O)c2c1")
43.8
>>> readout_value("Nc1c(C(=O)Nc2ccccn2)sc2nc3c(cc12)CCCC3")
65
>>> readout_value("COc1ccc2[nH]c3nc4cnccc4cc3c2c1")
97
>>> readout_value("Nn1c(SCC(=O)Nc2ccc(Cl)cc2)nnc1-c1cc(F)c(Cl)cc1Cl")
89.9
>>> readout_value("Cc1cnc(-c2ccc(-c3ccc(NC(=O)Nc4c(F)cc(F)cc4F)cc3F)c3c2C(=O)NC3)[nH]1")
39
>>> readout_value("CNCc1cccc2c1OCCOCCOCCN(CCN1CCOCC1)S(=O)(=O)c1ccc(cc1)-c1cnc(N)c(n1)C(=O)N2")
62.2
